molecular target: human glucagon receptor (human, UniProt P47871 26-477); assay: cell-based or functional assay
Starred links: 1 amine or outer side, 2 acyl side, 3 side chain; linkers in the order of their positions; H or OH if unused. Non-standard residues stand in square brackets, D forms with d. No end group written: not given here. AMCB = 2-amino-5-(4-chloro-2-methylphenyl)pentanoic acid, Cc1cc(Cl)ccc1CCC[C@H](N[*:1])C(=O)[*:2]; 2CF3,4F‑APPA = 2-amino-5-(4-fluoro-2-(trifluoromethyl)phenyl)pentanoic acid; Bip(2'-Et-4'-OMe) = CCc1cc(OC)ccc1-c1ccc(C[C@H](N)C(=O)O)cc1; 2F‑APPA = 2-amino-5-(2-fluorophenyl)pentanoic acid; αMePhe(2-F) = C[C@](N)(Cc1ccccc1F)C(=O)O; aThr = C[C@H](O)[C@H](N)C(=O)O; CNB = not defined here; Ac3c = NC1(C(=O)O)CC1; Aib = CC(C)(N)C(=O)O
# inhibition of cAMP production, 100 nM per record follows
value type: inhibition of cAMP production, 100 nM (pmol/ml/µg prt)

H[Aib]QGT[αMePhe(2-F)]TSD[Bip(2'-Et-4'-OMe)][AMCB] [Seq. ID. No. 40: H-Aib-QGT-(α-Me-2F-Phe)-TSD-Bip(OMe)-(AMCB)] = 12
H[Ac3c]QGTFTSD[Bip(2'-Et-4'-OMe)][2CF3,4F‑APPA] [Seq. ID. No. 72: H-(ACP)-QGTFTSD-Bip(OMe)-(2CF3,4F-APPA)] = 5
H[Aib][CNB]GT[αMePhe(2-F)][aThr]SD[Bip(2'-Et-4'-OMe)][2F‑APPA] (reading uncertain) [Seq. ID. No. 120: H-Aib-(CNB)-GT-(α-Me-2F-Phe)-T(allo)-SD-Bip(OMe)-(2F-APPA)] = 0
